// provenance: patent US9649294B2

Target: human glucagon receptor (Homo sapiens)
Construct: expressed in transfected cells; host or cells: CHO cells
Sequence (P47871 26-477): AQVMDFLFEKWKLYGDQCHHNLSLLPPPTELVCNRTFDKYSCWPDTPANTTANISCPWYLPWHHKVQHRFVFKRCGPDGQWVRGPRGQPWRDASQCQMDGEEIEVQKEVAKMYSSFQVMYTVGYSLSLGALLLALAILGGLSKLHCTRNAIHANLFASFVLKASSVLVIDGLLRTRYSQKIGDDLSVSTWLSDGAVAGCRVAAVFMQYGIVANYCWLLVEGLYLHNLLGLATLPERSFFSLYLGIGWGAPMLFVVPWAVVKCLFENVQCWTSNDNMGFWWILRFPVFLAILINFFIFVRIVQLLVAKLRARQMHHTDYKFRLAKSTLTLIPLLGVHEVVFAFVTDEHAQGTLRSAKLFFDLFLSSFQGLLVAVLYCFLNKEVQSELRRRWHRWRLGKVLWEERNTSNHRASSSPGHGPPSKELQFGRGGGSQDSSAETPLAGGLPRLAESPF
Test: Glucagon receptor binding assay (125I-glucagon, SPA, CHO cell membranes)
Settings: CHO cell membranes expressing cloned human glucagon receptor
endpointLabel: IC50 (nM)
Give a bare numeral; the unit nM is implied.

Data request: Request: IC50, test system human glucagon receptor (Homo sapiens), entry CCC[C@H](c1ccc(C(=O)NCCC(=O)O)cc1)[C@H](c1ccc(OC(F)(F)F)cc1)c1c[nH]c2c(F)cc(Cl)cc12
Data returned: 0.24

###

Assay: Pharmacokinetic study in rhesus monkey
Assay type: in vivo, rhesus monkeys
Conditions: rhesus monkey, plasma, IV 0.5 mg/kg, read-out: Clp, plasma clearance
endpointLabel: clearance (mL/min/kg)
Give a bare numeral; the unit mL/min/kg is implied.

Data request: Look at this compound and give its reported clearance. CCC[C@H](c1ccc(C(=O)NCCC(=O)O)cc1)[C@H](c1ccc(OC(F)(F)F)cc1)c1c[nH]c2c(F)cc(Cl)cc12
Data returned: 3
